- Test system: NIK
- Construct: gene MAP3K14
- settings: concentration: 1 μM,replicates: in singlicate; n = 1;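 note: KINOMEscan kinase panel screen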
%Inh for assorted compounds
Write it as a number; the unit % goes unstated.

Answered cases to consult:
O=C(Nc1cccc(C(F)(F)F)c1)c1cccc(Oc2ccc3nccn3n2)c1 : 36
COc1cc2nccc(Nc3ccc(Oc4ccccc4)cc3)c2cc1OC.Cl : 0

// sample "Cc1ccc2c(-c3ccnc(Nc4ccc(C(F)(F)F)cc4)n3)cnn2n1" , its %Inh was 10

Query "Cc1n[nH]c2cc(Nc3ccnc(Nc4cccc(CN5CCOCC5)c4)n3)ccc12" yields %Inh of 0

Record "COc1cc2c(Nc3ccc(NC(=O)c4ccccc4)cc3)ncnc2cc1OCCCN1CCOCC1" , field %Inh: 9

What the record says about "O=C(NOCC1CC1)c1cc(Br)c(F)c(F)c1Nc1ccc(I)cc1Cl" : %Inh is 0

The measured %Inh associated with COc1cc(Nc2nccc(N3CCC(NC(=O)c4cccc(C#N)c4)C3)n2)cc(OC)c1OC (stereo not drawn) reads 27

// %Inh value for COc1cccc(CNC(=O)NC2CCN(c3ccnc(Nc4cc(OC)c(OC)c(OC)c4)n3)C2)c1 (stereo not drawn) : 30

Measured %Inh of "Cl.c1ccc(Oc2ccc(Nc3ccnc4cc(-c5ccc(CN6CCNCC6)o5)ccc34)cc2)nc1" : 7

----------
- Tested on: PCTK2
- Construct: gene CDK17
- settings: concentration: 1 μM,replicates: in singlicate; n = 1
measuredEndpoint: %Inh (%)
Response body: numeric value in %, unit text excluded.

Worked cases, %Inh given:
CC(=O)Nc1ccc(-c2cc3ncnc(SCC(=O)O)c3s2)cc1 : 0
CC(=O)c1c(-c2ccncc2)[nH]c(-c2ccncc2)c1C : 0
Cc1n[nH]c2cc(Nc3ccnc(Nc4cccc(CN5CCOCC5)c4)n3)ccc12 : 12

// "COC(=O)Nc1nc2cc(Oc3ccc(NC(=O)Nc4cc(C(F)(F)F)ccc4Cl)cc3)ccc2[nH]1.Cl" : %Inh value = 11

The reported %Inh of the molecule "CSc1nccc(-c2c(-c3ccc(F)cc3)ncn2CCCN2CCOCC2)n1.Cl" was 0

Sample "O=C(NCC1CC1)c1ccc(-c2cc(C(=O)NC3CC3)ccc2F)cc1" ; %Inh observed: 0

----------
- System: CSNK1E
- settings: concentration: 1 μM,replicates: in singlicate; n = 1
measuredEndpoint: %Inh
Just the number plus its unit, please.

Consider the worked cases shown below.
COc1ccc(Nc2nccc(N3CCC(NC(=O)c4cccc(C#N)c4)C3)n2)cc1 (stereo not shown) [GSK1379730] : 27%
CCn1c(-c2nonc2N)nc2cncc(CNC3CCNCC3)c21.Cl [SB-747651] : 21%
CCCC(=O)Nc1n[nH]c2ncccc12 [SB-601436] : 2%

Form field %Inh for item Cc1ccc(Nc2ccnc(Nc3ccc4c(c3)CS(=O)(=O)C4)n2)cc1O.Cl [GW579362] on CSNK1E: 21%

Record for "Cn1ccc2ncnc(Oc3ccc(NC(=O)Nc4ccnc(C(F)(F)F)c4)c(Cl)c3)c21" under target or system CSNK1E: %Inh reported as 0%

----------
List of %Inh values.
- System: RPS6KA4(Kin.Dom.2-C-terminal)
- settings: concentration: 1 μM,replicates: in singlicate; n = 1
Only the number, expressed in %, is required.

Below are worked cases with known answers.
O=C(Nc1n[nH]c2cc(-c3ccco3)ccc12)C1CC1 : 18
CN(c1cccc(CNc2nc(Nc3ccc4c(c3)CC(=O)N4)ncc2C(F)(F)F)c1)S(C)(=O)=O : 3
CC(C)c1nc(-c2cccc(NS(=O)(=O)c3ccccc3)c2)c(-c2ccnc(Nc3ccc4c(c3)CN(C)CC4)n2)s1 : 0
C[C@@H]1CCN(C(=O)N2CCCC2)C[C@@H]1N(C)c1ncnc2[nH]ccc12 : 2
Cl.c1ccc(Oc2ccc(Nc3ccnc4cc(-c5ccc(CN6CCNCC6)o5)ccc34)cc2)nc1 : 0

API: the following record is the query input.
Entry "O=C(Nc1ccc(Oc2ccc3nc(NC(=O)C4CC4)cn3n2)c(F)c1)c1cccn(-c2ccccc2)c1=O" — recorded %Inh = 0

----------
- Tested on: FLT3
- settings: concentration: 1 μM,replicates: in singlicate; n = 1
measuredEndpoint: %Inh

Recorded results for 4 molecules are shown here.
CN(c1ccccc1CNc1nc(Nc2ccc3c(c2)CC(=O)N3)ncc1C(F)(F)F)S(C)(=O)=O : 99.5%
CN(c1ccc2c(c1)nc(NCc1ccc(F)cc1)n2C)c1ccnc(Nc2ccc(CS(C)(=O)=O)cc2)n1.Cl : 98.3%
CS(=O)(=O)c1cccc(CNc2nc(Nc3ccc4c(c3)[C@@H]3C[C@@H]4CNC3=O)ncc2C(F)(F)F)c1 : 99.6%
Cn1ccc2ncnc(Oc3ccc(NC(=O)Nc4cccc(C(F)(F)F)c4)c(Cl)c3)c21 : 84%

Moving on to another molecule below.
The measured %Inh that "O=C1NCCc2[nH]c(-c3ccncc3)cc21" showed for FLT3 is 0%

----------
- System: KIT
- settings: concentration: 1 μM,replicates: in singlicate; n = 1
Reported %Inh by item:
Numbers only here, please. The scale is %.

Answered cases to consult:
NC(=O)c1ccc(-c2cc3ncnc(SCC(=O)O)c3s2)cc1 : 68
Cn1ccc2ncnc(Oc3ccc(NC(=O)Nc4cc(C(C)(C)C)on4)c(Cl)c3)c21 : 100
CC(=O)c1c(-c2ccncc2)[nH]c(-c2ccncc2)c1C : 0

Entry under test: CCNCC(Cc1ccccc1)NC(=O)c1cc(Br)c(-c2ccnc3[nH]ccc23)s1.Cl.Cl (stereo not drawn) . Its %Inh was 50

Briefly, %Inh measured for "COc1cc2ncn(-c3cc(OCC4CCCCC4)c(C(N)=O)s3)c2cc1OC" : 31

In plain terms, "C[C@@H]1CCN(C(=O)N2CCCC2)C[C@@H]1N(C)c1ncnc2[nH]ccc12" has a documented %Inh of 0

Entry "Cn1ccc2ncnc(Oc3ccc(NC(=O)Nc4cccc(C(F)(F)F)c4)c(Cl)c3)c21" ; %Inh = 100

Summary for this molecule, "Cn1ccc2ncnc(Oc3ccc(NC(=O)Nc4cncc(C(F)(F)F)c4)c(Cl)c3)c21" : %Inh is 99.9

Entry COC(=O)c1cccc(NC(=O)NC2CCN(c3ccnc(Nc4cc(OC)c(OC)c(OC)c4)n3)C2)c1 (stereo not drawn) ; %Inh = 77

"CC(=O)Nc1nc2cnc(Nc3cc(NC(=O)c4cccc(CC(C)(C)C#N)c4)ccc3C)nc2s1" has a reported %Inh of 100

----------
- Tested on: TNK2
- settings: concentration: 1 μM,replicates: in singlicate; n = 1
measuredEndpoint: %Inh (%)
Give the value, in units of %, as a plain number.

Record "CC(C)S(=O)(=O)N1CCN(Cc2ccc3c(c2)nc(NC(=O)c2ccsc2)n3C[C@H](O)c2ccccc2)CC1" . Reported %Inh: 19

GET /value?item= "Cn1ccc2ncnc(Oc3ccc(NC(=O)Nc4cncc(C(F)(F)F)c4)c(Cl)c3)c21" &field=%Inh returns 0

Consider "Cn1ccc2ncnc(Oc3ccc(NC(=O)Nc4cc(C(C)(C)C)on4)c(Cl)c3)c21" . Its measured %Inh is 0

Lab book: %Inh of "Cn1ccc2ncnc(Oc3ccc(NC(=O)Nc4cccc(C(F)(F)F)c4)c(F)c3)c21" noted as 0

Lab book: %Inh of "CCCC(=O)Nc1n[nH]c2ncccc12" noted as 0

----------
- Test system: AURKB
- settings: concentration: 1 μM,replicates: in singlicate; n = 1
measuredEndpoint: %Inh
The number alone won't do; follow it with the unit.

Before answering, review these 5 worked examples.
Cn1ccc2ncnc(Oc3ccc(NC(=O)Nc4cnn(C(C)(C)C)c4)c(Cl)c3)c21 : 44%
COC(=O)Nc1nc2cc(Oc3ccc(NC(=O)Nc4cc(C(F)(F)F)ccc4Cl)cc3)ccc2[nH]1.Cl : 86%
CC(=O)Nc1ccc(-c2cc3ncnc(SCC(=O)O)c3s2)cc1 : 97.1%
CN1CCN(CCNc2nc3cc(Oc4ccc(NC(=O)Nc5cc(C(F)(F)F)ccc5F)cc4)ccc3[nH]2)CC1.Cl.Cl : 22%
CCn1c(-c2nonc2N)nc2cncc(Br)c21 : 17%

%Inh measured on "NC(=O)c1ccc(-c2cc3ncnc(SCC(=O)O)c3s2)cc1" = 80%

Entry "O=C(Nc1n[nH]c2cc(-c3ccco3)ccc12)C1CC1" ; %Inh = 12%

The value of %Inh measured for the compound "Cn1ccc2ncnc(Oc3ccc(NC(=O)Nc4cccc(C(F)(F)F)c4)c(Cl)c3)c21" turned out to be 51%

Measured %Inh, "C[C@@H](Oc1cc(-n2cnc3cc(-c4cnn(C)c4)ccc32)sc1C(N)=O)c1ccccc1Cl" : 90.6%

According to the records, this compound CS(=O)c1ccc(-c2coc3ccc(-c4n[nH]c(=O)o4)cc23)cc1 (stereo not shown) displays %Inh of 26%

// %Inh value for "Cc1ccc(Nc2ccnc(Nc3ccc4c(c3)CS(=O)(=O)C4)n2)cc1O.Cl" : 85%

// "FC(F)(F)c1cc(Br)cc(Nc2nccc(-c3cnn4ncccc34)n2)c1" : %Inh value = 16%

Short answer for "Cc1ccc(C(=O)Nc2ccc(Oc3ccc4nc(NC(=O)C5CC5)cn4c3)c(F)c2)c(=O)n1-c1ccccc1" : %Inh was 82%

Documented %Inh of "Cc1cccc2c(-c3ccncc3)c(-c3ccc(F)cc3)nn12.Cl" : 0%

Note to self: %Inh recorded for "Cl.Nc1n[nH]c2cc(-c3ccccn3)ccc12" was 8%

// sample "Cc1n[nH]c2cc(Nc3ccnc(Nc4cccc(CN5CCOCC5)c4)n3)ccc12" , its %Inh was 55%

The reported value for "Cc1ccc2c(-c3ccnc(Nc4ccc(C(F)(F)F)cc4)n3)cnn2n1" in terms of %Inh is 32%

%Inh in this record for "Cn1ccc2ncnc(Oc3ccc(NC(=O)Nc4ccnc(C(F)(F)F)c4)c(Cl)c3)c21" : 34%

Data point: "Cn1cc(-c2cccc3c(N)c(C(N)=O)nnc23)cn1" ; %Inh = 27%
